Entries annotated with measured PBM binding z-score
tested on: PPARg DBDmut IVT, anti-PPARg (DBD mutation: PPARg1 K132A/R137A, NR concentration 270 nM); assay: PBM binding z-score (relative to random genomic background probes); higher = stronger binding; sequences stand for … in GC…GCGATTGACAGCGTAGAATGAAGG
OBSERVABLE: PBM binding z-score

In [3]: df
Out[3]:
                           seq_string           observable  recorded_number
0  CATAGTTGGTCAAGGTCACACACGCTATAGGTAC  PBM binding z-score             1.92
1  CAAACTAGGTCAAGGTCAAATTCGGTTTGTGCCA  PBM binding z-score             3.07
2  CCTACTGGGCCATTCAGAGGTTATTGATCATATG  PBM binding z-score            0.252
3  TAGCCTAGGTCATGGGCCTGTATACCACGCGAAC  PBM binding z-score           -0.135
4  ATCGAATGGTCGAGGTGAGTATAGAGAAAGGGAA  PBM binding z-score             0.73

###

test system: LXRa homodimer (NR concentration 270 nM); assay: PBM binding z-score (relative to random genomic background probes); higher = stronger binding; sequences stand for … in GC…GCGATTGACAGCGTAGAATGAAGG
OBSERVABLE: PBM binding z-score

                           seq_string                               test_system           observable  recorded_number
0  CTATGTAGGTTAAAGGGGTCATTCAGTTTGAAAG  LXRa homodimer (NR concentration 270 nM)  PBM binding z-score             4.18
1  CCTACTGGGCCAAAACGGTCATTGATGCCGATAA  LXRa homodimer (NR concentration 270 nM)  PBM binding z-score           0.0364
2  CATACAGGGACAGCTAGGCCAGAGTAGGGACGGC  LXRa homodimer (NR concentration 270 nM)  PBM binding z-score           -0.464

###

tested on: PPARg:RXRa 270nM:90nM, anti-RXR (NR concentration 270 nM, RXRa partner concentration 90 nM); assay: PBM binding z-score (relative to random genomic background probes); higher = stronger binding; sequences stand for … in GC…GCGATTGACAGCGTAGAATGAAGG
The label depends only on PBM binding z-score: 1.0 if it is at least 5, 0.0 if it is smaller.

>>> print(df.to_string())
                            seq_string  qualitative_label
 0  TCGAGTAGGTTACGGGGTCATTCAGGGATGAAGA                1.0
 1  CGAACTAGGTCACCAGGACAGTGGAGAGGTTGGA                1.0
 2  CCCCGGAGGACAGAAGGTCAGAGCTGTCCGCTTT                0.0
 3  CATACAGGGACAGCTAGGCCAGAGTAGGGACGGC                0.0
 4  TCTAGCTGGTCAAAGGTCACACACTCGAAATGCG                1.0
 5  ATCTGTAGGTTATCGGGTCATTCAGTTTGCGCAT                0.0
 6  CCTACTGGGCCATTCAGAGGTCATCGATCATATG                0.0
 7  CGTCAACGTTCAACTAAGGTAACGTAAAGCACGC                0.0
 8  ATATGTAGGTTACATCCGGGTCATTCTGGCTATG                0.0
 9  ATATGTAGGTTAGGGTCATTTAGAAAGTAGGGAA                1.0
10  GCTCGGAGGACAAGGTCAGGGCTTTGTCCGTAGA                0.0
11  CCTACTGGGCGAAGGTCATTGATCAGTCAAAGCA                0.0
12  ATATGTAGGTTACCGGGTCATTCAGTTTGCGCAT                1.0
13  GCTTACGGGTCAAAGGTTAAAGCATGAATAGAAT                1.0
14  ATCGGAAGGTCGAGGTGAGTATAGAGAAAGGGAA                0.0
